assay: Timed organ biodistribution of [^64Cu]Cu-DOTATATE by ex vivo gamma counting; type: in vivo, mice; conditions: mouse, abdominal aorta, intravenous, 1.85 MBq, total radioactivity; female C57BL/6 mice, 30 min after injection, median (IQR), N=3-7; read-out: Tissue radioactivity, abdominal aorta
measured.attribute: tissue uptake at 0.5 h

• C[C@@H](O)[C@H](NC(=O)[C@@H]1CSSC[C@H](NC(=O)[C@@H](Cc2ccccc2)NC(=O)CN2CCN(CC(=O)O)CCN(CC(=O)O)CCN(CC(=O)O)CC2)C(=O)N[C@@H](Cc2ccc(O)cc2)C(=O)N[C@H](Cc2c[nH]c3ccccc23)C(=O)N[C@@H](CCCCN)C(=O)N[C@@H]([C@@H](C)O)C(=O)N1)C(=O)O [[^64Cu]Cu-DOTATATE, metal not drawn] = 1.7 %ID/g
